Catalogue of inhibition readings, one per entry.
- system_under_test: Prolyl endopeptidase-like (Mus musculus)
- protocol_text: purified PREPL inhibitors, PREPL inhibitor project, biochemical, gel-based competitive ABPP, fluorescence, HTS hits (AID 624481)
- measurement_parameters: at 20 µM, stronger effect = higher value
Your answer is read as %, so omit the unit and give the number.

molecule | measured_property | value
CC(C)C[C@@H]1CN=C(N)N1C[C@@H]1CCCN1C[C@@H](C(C)C)N1C[C@@H](Cc2ccccc2)N(CCCC2CCCC2)C1=N | inhibition | -52
CCN1/C(=C/c2ccc3cc(C)ccc3[n+]2CC)Sc2ccccc21 | inhibition | 98
O=C(c1cc([N+](=O)[O-])ccc1Cl)N1CCN(c2ccc([N+](=O)[O-])cc2)CC1 | inhibition | -51
c1ccc2c(NCCc3c[nH]c4ccccc34)c3ccccc3nc2c1 | inhibition | -49
CN1CCN(c2ccc(NC(=O)COc3ccc(Cl)cc3Cl)cc2)CC1 | inhibition | -13
C#CCOCCOCCOCCNc1nc(N2CCN(C(=O)CCCCCCCCCCNC(=O)Cn3cc(CCCCCN)nn3)CC2)nc(N2CCN(C(=O)CCCCCCCCCCNC(=O)[C@H](CO)n3cc(CCCSC)nn3)CC2)n1 | inhibition | 31
COc1ccc(Cn2c(SCc3ccccc3C)nc3cc(OC)c(OC)cc3c2=N)cc1 | inhibition | 52
CN(C)c1ccc(C(CNC(=O)COc2ccc(Cl)cc2)N2CCCC2)cc1 (configuration not stated) | inhibition | -25
Cc1ccc(-c2csc(=Nc3cccnc3)n2CCCN2CCCC2=O)cc1C | inhibition | -149
CC(C)NC(=O)c1sc(=S)n2c1[nH]c(=O)c1ccc(C(=O)NCCc3ccc(Cl)cc3)cc12 | inhibition | -28

query: Look up inhibition for this molecule: `Oc1c(CN2CCOCC2)cc(COCc2ccccc2)c2cccnc12`
result: -145

query: Another molecule to look at: `CN1CCN(C(=O)C2=C[C@@H](c3ccc(C(F)(F)F)cc3)C[C@@H](OCc3ccc(CO)cc3)O2)CC1`
result: -83
